# Test system: CCRIS mutagenicity, Ames/micronucleus/aberration tests
# TEST_METHOD_NOTES: CCRIS mutagenicity studies
# REPORTED_CONDITIONS: Test System: AMES SALMONELLA TYPHIMURIUM; Strain/Indicator: TA98; Metabolic Activation: HAMSTER, LIVER, S-9, AROCLOR 1254; Method: STANDARD PLATE
Calls of active or inactive are those of the source. How the calls were made is not given here.
Return exactly one item of yes (1) (active), no (0) (inactive)

Sample answers from the record:
>>> group("COc1ccc(N)cc1")
"no (0)"
>>> group("C=C1CC/C=C(/C)CC[C@@H]2[C@@H]1CC2(C)C")
"no (0)"
>>> group("OCCNc1ccc(N=Nc2ccc(N(CCO)CCO)cc2)cc1")
"no (0)"
>>> group("C/C=C/C=C/C=O")
"no (0)"
>>> group("CC(=O)c1ccccn1")
"no (0)"

Query block: How was Nc1ccc2ccccc2c1N=Nc1ccccc1 classified in this test?
Result block: no (0)

Query block: I'd appreciate the recorded outcome for Nc1ncn([C@@H]2O[C@H](CO)[C@@H](O)[C@@H]2O)c(=O)n1 from this test.
Result block: no (0)

###

# Tested on: CCRIS mutagenicity, Ames/micronucleus/aberration tests
# TEST_METHOD_NOTES: CCRIS mutagenicity studies
# REPORTED_CONDITIONS: Test System: AMES SALMONELLA TYPHIMURIUM; Strain/Indicator: TA100; Metabolic Activation: NONE; Method: STANDARD PLATE
Activity calls are given as the source filed them. No rule for the calls is given here.
Your reply should match one of these outcome classes. active, inactive

Use these answered entries as a reference point.
>>> group("Cn1c2ccccc2c2ccc([N+](=O)[O-])cc21")
"active"
>>> group("CC(Br)C(N)=O (centres undefined)")
"active"
>>> group("Nc1ncnc2c1ncn2[C@H]1CC[C@@H](CO)O1")
"inactive"
>>> group("O=C(/C=C/c1ccccc1)c1ccc(O)cc1")
"inactive"
>>> group("Oc1cc2c3ccccc3ccc2c2ccccc12")
"inactive"

Query block: Name the outcome recorded for O[C@@H]1C=Cc2ccc3c(ccc4ccccc43)c2[C@H]1O in the assay.
Result block: inactive

###

# Test system: CCRIS mutagenicity, Ames/micronucleus/aberration tests
# TEST_METHOD_NOTES: CCRIS mutagenicity studies
# REPORTED_CONDITIONS: Test System: AMES SALMONELLA TYPHIMURIUM; Strain/Indicator: TA100; Metabolic Activation: NONE; Method: PREINCUBATION
Calls of active or inactive are those of the source. No rule for the calls is given here.
ENDPOINT_LABEL: mutagenic call

These solved cases illustrate the format of a correct answer.
>>> data_value("Nc1ccc([N+](=O)[O-])cc1[N+](=O)[O-]")
"active; positive"
>>> data_value("C=CC(=O)OCC(CO)(COC(=O)C=C)COC(=O)C=C")
"inactive; negative"
>>> data_value("CC(=O)N[C@@H](CS/C(Cl)=C(\\Cl)C(Cl)=C(Cl)Cl)C(=O)O")
"inactive; negative"
>>> data_value("CC1(c2ccc(Cl)cc2)CO1 (stereo not drawn)")
"active; positive"
>>> data_value("Cc1ncc[nH]1")
"inactive; negative"
>>> data_value("CC1(C)C(=O)N(Cl)C(=O)N1Cl")
"inactive; negative"
>>> data_value("CC\\C=C/C=C\\C=C/C=C\\C=C/OCC(C)O (stereo not drawn)")
"active; positive"
>>> data_value("O=C1NCCN1c1ncc([N+](=O)[O-])s1")
"active; positive"

Query block: Dear colleague, please send me the reported mutagenic call for CCc1cn([C@H]2C[C@H](O)[C@@H](CO)O2)c(=O)[nH]c1=O when you can.
Result block: inactive; negative

Query block: Annotate the compound Cc1c([N+](=O)[O-])c(C)c([N+](=O)[O-])c(C(C)(C)C)c1[N+](=O)[O-] with its measured mutagenic call.
Result block: inactive; negative

Query block: Give recorded mutagenic call. CCCCCCC(=O)O
Result block: inactive; negative

Query block: Please give the documented mutagenic call of CCCCC(CC)CO (stereo not drawn)
Result block: inactive; negative

Query block: Name the recorded mutagenic call of the item C=CC(=O)OCC(Br)CBr (stereo not drawn) in your answer.
Result block: inactive; negative
